# Protocol: Cytotoxicity test (MTS)
# Type: cell-based
# Condition Description: human, MRC-5 normal lung fibroblasts; MRC-5 cells, dose of up to 100 μg/mL; read-out: cell viability
Numbered stars: 1 amine (or outer) side, 2 acyl side, 3 side chain; on linkers, the order of the positions; unused ones are H or OH. Square brackets hold non-standard residues; d marks the D form. Peptide text beside a SMILES is read from it. * marks the point of attachment. ξ: configuration not given here. X1 = NCC(O)CCC(N[*:1])C(=O)[*:2]; ΔZArg = N=C(N)NCC/C=C(\N)C(=O)O; ξDab(3-OH) = NCC(O)C(N)C(=O)O; Orn = NCCC[CH](N)C(=O)O; NH(CH2)4NH2 = NCCCCN*
Listed here are compounds together with their documented viability at 72 h.
Measurement Name: viability at 72 h (%)

[[record]]
compound = "N=C(N)NCC/C=C(\\NC(=O)C(CCCCN)NC(=O)C(Cc1cnc[nH]1)NC(=O)C1CCCN1C(=O)C(CCCN)NC(=O)CNC(=O)C(NC(=O)C(NC(=O)C(N)CCCCN)C(O)CN)C(O)CN)C(=O)NC(CCC(O)CN)C(=O)NCCCCN (stereo not drawn) [Odilomycin B] (H-K[ξDab(3-OH)][ξDab(3-OH)]G[Orn]PHK[ΔZArg][X1]-{NH(CH2)4NH2}; configuration not given here)"
unit_abbreviation = "%"
result_value = 100

[[record]]
compound = "N=C(N)NCC/C=C(\\NC(=O)C(CCC(O)CN)NC(=O)C(Cc1cnc[nH]1)NC(=O)C1CCCN1C(=O)C(CCCN)NC(=O)CNC(=O)C(NC(=O)C(NC(=O)C(N)CCCCN)C(O)CN)C(O)CN)C(=O)NC(CCC(O)CN)C(=O)NCCCCN (stereo not drawn) [Odilomycin A] (H-K[ξDab(3-OH)][ξDab(3-OH)]G[Orn]PH[X1][ΔZArg][X1]-{NH(CH2)4NH2}; configuration not given here)"
unit_abbreviation = "%"
result_value = 100

[[record]]
compound = "N=C(N)NCC/C=C(\\NC(=O)C(CCCCN)NC(=O)C(Cc1cnc[nH]1)NC(=O)C1CCCN1C(=O)C(CCCN)NC(=O)CNC(=O)C(NC(=O)C(NC(=O)C(N)CCCCN)C(O)CN)C(O)CN)C(=O)NC(CCCCN)C(=O)NCCCCN (stereo not drawn) [Odilomycin C] (H-K[ξDab(3-OH)][ξDab(3-OH)]G[Orn]PHK[ΔZArg]K-{NH(CH2)4NH2}; configuration not given here)"
unit_abbreviation = "%"
result_value = 100

